Assay: qHTS assay to identify small molecule agonists of the TGF-beta/Smad signaling pathway (AID 1346859)
Conditions: SBE-bla HEK293T, TGF-beta/Smad beta-lactamase reporter, 5 h; series mostly up to 76.8 µM
Records with an inconclusive call do not appear. Active and inactive are the calls of the source. Calls follow the shape of the dose curve; as a rule, active = well fitted activation curve with a large enough effect in the signal ratio in the repeat runs (not every such curve was filed as active); inconclusive = weak or mixed curves; inactive = flat fitted curve, though single readings scatter; the % refers to the signal ratio.
test_readout: activation

Example entries begin here.
compound: CS(=O)(=O)O
activation: inactive

compound: CCCCOCCOCCOCCCC
activation: inactive

compound: CCN1CCC[C@H]1CNC(=O)c1c(O)c(Cl)cc(Cl)c1OC
activation: inactive

compound: NS(=O)(=O)c1cc(C(=O)O)cc(N2CCCC2)c1Oc1ccccc1
activation: inactive

Quick one: give me activation for each item below, same order please.
1. CCN(CC)CCOCCOC(=O)C1(c2ccccc2)CCCC1
2. Cc1ccc(C#N)cc1
3. O=C(CCCN1CCN(c2ccccn2)CC1)c1ccc(F)cc1
4. CCOC(=O)CCC(C)=O
5. C=C[Si](OC(=C)C)(OC(=C)C)OC(=C)C
6. C[C@H]1C[C@@H](O)CC(C)(C)C1
7. CN(C(=O)c1c(O)c2ccccc2n(C)c1=O)c1ccccc1

["inactive", "inactive", "inactive", "inactive", "inactive", "inactive", "inactive"]
